Origin of measurements: patent US20250327043A1

Tested on: HuAAT5
protocol.notes: AAT enzyme assay with the purified HuAAT5 enzyme
Type: biochemical, Helichrysum umbraculigerum
condition: acyl donors acetyl-, iso-butyryl-, iso-valeryl- or hexanoyl-CoA, 30° C., 3 h, pH 7.4
endpoint.label: acylation of the cannabinoid acceptor by purified HuAAT5

compound: CCCCCc1cc(O)cc(O)c1C(=O)O
result: successfully acylated
//
compound: C=C(C)[C@@H]1CCC(C)=C[C@H]1c1c(O)cc(CCCCC)c(C(=O)O)c1O
result: successfully acylated
//
compound: CCCCCc1cc2c(c(O)c1C(=O)O)C=CC(C)(CCC=C(C)C)O2 (stereo not drawn)
result: inactive
//
compound: CCCCCc1cc(O)c(C/C=C(\C)CCC=C(C)C)c(O)c1C(=O)O
result: successfully acylated
//
compound: CCCCCc1cc2c(c(O)c1C(=O)O)[C@@H]1C=C(C)CC[C@H]1C(C)(C)O2 (relative stereo)
result: inactive
//
compound: CC(C)=CCCC(C)=CCc1c(O)cc(CCc2ccccc2)c(C(=O)O)c1O
result: successfully acylated
